Origin of the recorded values: paper PMC2605521

Target: δ-opioid receptor (Homo sapiens)
Sequence (P41143 whole entry): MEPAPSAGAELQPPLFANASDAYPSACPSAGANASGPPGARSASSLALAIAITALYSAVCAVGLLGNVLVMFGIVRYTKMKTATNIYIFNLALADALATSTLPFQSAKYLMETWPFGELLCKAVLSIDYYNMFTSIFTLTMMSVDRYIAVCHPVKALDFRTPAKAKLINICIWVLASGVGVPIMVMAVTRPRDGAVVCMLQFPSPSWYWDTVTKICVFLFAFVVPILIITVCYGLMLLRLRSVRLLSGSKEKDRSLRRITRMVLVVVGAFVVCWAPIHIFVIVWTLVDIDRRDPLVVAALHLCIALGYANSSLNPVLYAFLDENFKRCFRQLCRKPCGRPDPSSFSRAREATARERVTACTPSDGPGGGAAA
pKi: −log10 of the molar value.
attribute.measured: pKi

Query: Param request: pKi | system δ-opioid receptor (Homo sapiens) | item CN1CC[C@@]23C[C@@H]1CC[C@H]2Oc1c(O)cccc13 (racemic)
Reply: < 5.00
